system.tested: human GLP-1 receptor (human, UniProt P43220 24-463)
Sequence (P43220 24-463): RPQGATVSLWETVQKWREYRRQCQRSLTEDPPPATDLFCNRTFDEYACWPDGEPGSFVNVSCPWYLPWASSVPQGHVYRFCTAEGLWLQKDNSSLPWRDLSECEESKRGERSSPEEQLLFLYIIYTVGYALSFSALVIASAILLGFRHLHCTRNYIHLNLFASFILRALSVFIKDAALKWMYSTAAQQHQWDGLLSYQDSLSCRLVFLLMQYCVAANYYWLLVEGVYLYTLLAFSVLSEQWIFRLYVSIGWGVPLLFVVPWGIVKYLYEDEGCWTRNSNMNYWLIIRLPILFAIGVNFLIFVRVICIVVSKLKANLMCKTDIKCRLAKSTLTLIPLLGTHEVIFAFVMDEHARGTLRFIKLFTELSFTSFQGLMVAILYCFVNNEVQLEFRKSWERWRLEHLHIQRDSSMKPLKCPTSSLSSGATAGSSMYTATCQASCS
experiment: cell-based or functional assay
Non-standard residues stand in square brackets, D forms with d. No end group written: not given here. 2Cl,4OMe‑APPA = 2-amino-5-(2-chloro-4-methoxyphenyl)pentanoic acid; Bip(2'-Et-4'-OMe) = CCc1cc(OC)ccc1-c1ccc(C[C@H](N)C(=O)O)cc1; Nva(5-(3,5-Me2Ph)) = Cc1cc(C)cc(CCC[C@H](N)C(=O)O)c1; 2F‑APPA = 2-amino-5-(2-fluorophenyl)pentanoic acid; αMePhe(2-F) = C[C@](N)(Cc1ccccc1F)C(=O)O; hhPhe = N[C@@H](CCCc1ccccc1)C(=O)O; aThr = C[C@H](O)[C@H](N)C(=O)O; CNB = not defined here; Aib = CC(C)(N)C(=O)O
measured.attribute: cAMP release, % activity, 10 nM (%)

| binder | measurement |
| --- | --- |
| H[Aib][CNB]GTFTSD[Bip(2'-Et-4'-OMe)][Nva(5-(3,5-Me2Ph))] (reading uncertain) [Seq. ID. No. 30: H-Aib-(CNB)-GTFTSD-Bip(OMe)-(ADMP)] | 78 |
| H[Aib][CNB]G[aThr][αMePhe(2-F)][aThr]SD[Bip(2'-Et-4'-OMe)][hhPhe] (reading uncertain; also: thioamide bonds between residues 9-10 and 10-11) [Seq. ID. No. 178: H-Aib-(CNB)-G-T(allo)-(α-Me-2F-Phe)-T(allo)-SD-(C═S)-Bip(OMe)-(C═S)-(APPA)] | 80 |
| H[Aib][CNB]GTFTSD[Bip(2'-Et-4'-OMe)][2Cl,4OMe‑APPA] (reading uncertain) [Seq. ID. No. 84: H-Aib-(CNB)-GTFTSD-Bip(OMe)-(2Cl,4OMe-APPA)] | 77 |
| H[Aib][CNB]G[aThr][αMePhe(2-F)][aThr]SD[Bip(2'-Et-4'-OMe)][2F‑APPA] (reading uncertain; also: thioamide bonds between residues 9-10 and 10-11) [Seq. ID. No. 180: H-Aib-(CNB)-G-T(allo)-(α-Me-2F-Phe)-T(allo)-SD-(C═S)-Bip(OMe)-(C═S)-(2F-APPA)] | 81 |

meta.source: patent US20120021972A1
